Target: HA of virus A/Solomon Islands/IVR-145 (H1N1) (influenza A virus (H1N1))
Assay: cell-based or functional assay
Hi there, I'd appreciate the recorded Neutralization titer SK50 for every entry that follows.

Name the recorded Neutralization titer SK50 of the item CR8052 (antibody, V domains shown) VH: DIQLTQSPSSLSASVGDRVTITCRASQGINTYLNWYQQKPGKAPKVLIFAASTLQSGVPSRFSGSGSGTEFTLNINNLQPEDFATYYCQQSYSTAIT VL: EVQLVESGGGVVQPGRSLRLSCAASGFSFTTYGMHWVRQAPGKGLEWVAFIWYDGSNKHYQDSVKGRFTISKDNSNNMLYLQMDSLRVADTAVYYCVRDGGYSTWEWYFDL in your answer.
> 40 µg/mL

Look up and report measured Neutralization titer SK50 for this entry: CR8049 (antibody, V domains shown) VH: QVTLKESGPVLVKPKETLTLTCTVSGFSLSNTRMGVSWIRQPPGKALEWLAHIFSNDETSYRTSLKRRLTISQDISKSQVVLSMTNVDPADTATYFCARIGSGYESSAYSTWLDP VL: QVQLQQWGAGLLKPSETLSLTCAVYGGSFTDHYWSWIRQSPGKGLEWIGEVVHSGDTNYTPSLRNRVSISVDSSKNQFSLRLGSVTAADTAVYYCARGRNVAVVGAIQRHYDY
> 40 µg/mL
